Biological target: T1, interleukin-23 receptor (IL-23R), Q5VWK5
T1 chain: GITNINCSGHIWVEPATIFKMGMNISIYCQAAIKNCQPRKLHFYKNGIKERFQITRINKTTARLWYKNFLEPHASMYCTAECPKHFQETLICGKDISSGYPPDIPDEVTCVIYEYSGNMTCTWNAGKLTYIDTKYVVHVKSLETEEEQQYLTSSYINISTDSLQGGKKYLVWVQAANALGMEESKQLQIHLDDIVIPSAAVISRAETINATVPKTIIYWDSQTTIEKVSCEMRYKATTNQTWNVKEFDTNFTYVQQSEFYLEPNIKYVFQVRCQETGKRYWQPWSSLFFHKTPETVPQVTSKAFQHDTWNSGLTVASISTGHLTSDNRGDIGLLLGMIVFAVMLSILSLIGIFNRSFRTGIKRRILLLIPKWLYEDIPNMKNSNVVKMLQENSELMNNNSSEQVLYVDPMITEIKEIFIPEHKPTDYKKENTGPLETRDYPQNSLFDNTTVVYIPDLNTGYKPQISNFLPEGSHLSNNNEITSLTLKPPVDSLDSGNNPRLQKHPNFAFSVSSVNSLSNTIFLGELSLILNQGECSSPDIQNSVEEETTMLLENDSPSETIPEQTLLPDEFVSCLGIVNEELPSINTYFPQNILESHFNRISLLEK
Experiment: cell-based or functional assay
Positions of bridges follow the written chain, without caps; N, C: chain ends. Non-standard residues stand in square brackets, D forms with d. No end group written: not given here. 2Nal(6-OH) = N[C@@H](Cc1ccc2cc(O)ccc2c1)C(=O)O; Trp(7-Me) = Cc1cccc2c(C[C@H](N)C(=O)O)c[nH]c12; d(hLys(Me3)) = C[N+](C)(C)CCCCC[C@@H](N)C(=O)O; AEF = NCCOc1ccc(C[C@H](N)C(=O)O)cc1; 3Pal = N[C@@H](Cc1cccnc1)C(=O)O; Lipidated = not defined here; Pen = CC(C)(S)[C@H](N)C(=O)O; lipid = not defined here; Thp = NC1(C(=O)O)CCOCC1; Sar = CNCC(=O)O
readout: PBMC pSTAT3 IC50

[d(hLys(Me3))][Pen]NT[Trp(7-Me)]K(Ac)[Pen][2‑amino‑3‑(4-(2-aminoethoxy)phenyl)propanoic acid][2‑amino‑3‑(6-hydroxynaphthalen-2-yl)propanoic acid][Thp]K(Lipidated)N[3Pal][Sar] (disulfide 2-7 (inferred); ends not checked; also: K11 lipidated lysine, lipid not given here) [SEQ ID NO: 184] : < 1 nM
R[Pen]NT[Trp(7-Me)]K(Ac)[Pen][2‑amino‑3‑(4-(2-aminoethoxy)phenyl)propanoic acid][2‑amino‑3‑(6-hydroxynaphthalen-2-yl)propanoic acid][Thp]EN[3Pal][Sar]K(lipid) (disulfide 2-7 (inferred); ends not checked; also: Lys15 lipidated, lipid not given here) [SEQ ID NO: 218] : > 1 nM

As a next step, examine the binder that follows.
[in] Requested read-out: PBMC pSTAT3 IC50. Entry: [Pen]ET[Trp(7-Me)]K(Ac)[Pen][AEF][2Nal(6-OH)][Thp]EN[3Pal][Sar] (not fully specified (bridges); ends and bridges not checked) [SEQ ID NO: 397]
[out] < 10 pM

The measured values listed here are drawn from patent US20240279281A1.
